Cited source: BigSolDB 2.1

settings: in isobutanol, 308.15 K

Smiles code: CC(=O)N[C@@H](Cc1ccc(O)cc1)C(=O)O
solubility (mole fraction): 0.0683

###

conditions: in n-propyl acetate, 308.15 K
Readout label: solubility (mole fraction)

Smiles code: CC(=O)N[C@@H](Cc1ccc(O)cc1)C(=O)O
Reported measurement: 0.00366

###

settings: in dimethyl carbonate, 323.15 K

Smiles code: CC(=O)N[C@@H](Cc1ccc(O)cc1)C(=O)O
solubility (mole fraction): 0.00404

###

conditions: in n-butanol, 323.15 K
Readout label: solubility (mole fraction)

Smiles code: CC(=O)N[C@@H](Cc1ccc(O)cc1)C(=O)O
Reported measurement: 0.108

###

conditions: in isobutanol, 318.15 K

Smiles code: CC(=O)N[C@@H](Cc1ccc(O)cc1)C(=O)O
solubility (mole fraction): 0.0853

###

settings: in n-butanol, 288.15 K

Smiles code: CC(=O)N[C@@H](Cc1ccc(O)cc1)C(=O)O
solubility (mole fraction): 0.058

###

conditions: in dimethyl carbonate, 308.15 K
Readout label: solubility (mole fraction)

Smiles code: CC(=O)N[C@@H](Cc1ccc(O)cc1)C(=O)O
Reported measurement: 0.00267

###

settings: in water, 288.15 K
Readout label: solubility (mole fraction)

Smiles code: CC(=O)N[C@@H](Cc1ccc(O)cc1)C(=O)O
Readout label: solubility (mole fraction)
Reported measurement: 0.00935

###

details: in acetonitrile, 303.15 K
Readout label: solubility (mole fraction)

Smiles code: CC(=O)N[C@@H](Cc1ccc(O)cc1)C(=O)O
Reported measurement: 0.0064

###

details: in sec-butanol, 323.15 K

Smiles code: CC(=O)N[C@@H](Cc1ccc(O)cc1)C(=O)O
solubility (mole fraction): 0.159

###

settings: in isobutanol, 323.15 K

Smiles code: CC(=O)N[C@@H](Cc1ccc(O)cc1)C(=O)O
solubility (mole fraction): 0.0973

###

settings: in water, 313.15 K
Readout label: solubility (mole fraction)

Smiles code: CC(=O)N[C@@H](Cc1ccc(O)cc1)C(=O)O
Reported measurement: 0.0459

###

conditions: in isopropanol, 283.15 K
Readout label: solubility (mole fraction)

Smiles code: CC(=O)N[C@@H](Cc1ccc(O)cc1)C(=O)O
Reported measurement: 0.0772

###

details: in n-propyl acetate, 318.15 K
Readout label: solubility (mole fraction)

Smiles code: CC(=O)N[C@@H](Cc1ccc(O)cc1)C(=O)O
Reported measurement: 0.00509

###

conditions: in n-butyl acetate, 313.15 K

Smiles code: CC(=O)N[C@@H](Cc1ccc(O)cc1)C(=O)O
solubility (mole fraction): 0.00388

###

settings: in acetone, 313.15 K

Smiles code: CC(=O)N[C@@H](Cc1ccc(O)cc1)C(=O)O
solubility (mole fraction): 0.166

###

details: in sec-butanol, 308.15 K
Readout label: solubility (mole fraction)

Smiles code: CC(=O)N[C@@H](Cc1ccc(O)cc1)C(=O)O
Readout label: solubility (mole fraction)
Reported measurement: 0.125

###

conditions: in isopentanol, 318.15 K
Readout label: solubility (mole fraction)

Smiles code: CC(=O)N[C@@H](Cc1ccc(O)cc1)C(=O)O
Reported measurement: 0.0749

###

conditions: in n-propyl acetate, 293.15 K
Readout label: solubility (mole fraction)

Smiles code: CC(=O)N[C@@H](Cc1ccc(O)cc1)C(=O)O
Reported measurement: 0.00232

###

conditions: in ethyl acetate, 293.15 K

Smiles code: CC(=O)N[C@@H](Cc1ccc(O)cc1)C(=O)O
solubility (mole fraction): 0.00477

###

conditions: in n-butyl acetate, 323.15 K

Smiles code: CC(=O)N[C@@H](Cc1ccc(O)cc1)C(=O)O
solubility (mole fraction): 0.00435

###

settings: in isopropanol, 293.15 K

Smiles code: CC(=O)N[C@@H](Cc1ccc(O)cc1)C(=O)O
solubility (mole fraction): 0.105

###

settings: in isobutanol, 298.15 K
Readout label: solubility (mole fraction)

Smiles code: CC(=O)N[C@@H](Cc1ccc(O)cc1)C(=O)O
Readout label: solubility (mole fraction)
Reported measurement: 0.0522

###

settings: in acetonitrile, 313.15 K

Smiles code: CC(=O)N[C@@H](Cc1ccc(O)cc1)C(=O)O
solubility (mole fraction): 0.00988

###

conditions: in n-butyl acetate, 283.15 K

Smiles code: CC(=O)N[C@@H](Cc1ccc(O)cc1)C(=O)O
solubility (mole fraction): 0.00136

###

settings: in methyl acetate, 283.15 K

Smiles code: CC(=O)N[C@@H](Cc1ccc(O)cc1)C(=O)O
solubility (mole fraction): 0.00475

###

details: in water, 318.15 K

Smiles code: CC(=O)N[C@@H](Cc1ccc(O)cc1)C(=O)O
solubility (mole fraction): 0.0726

###

conditions: in n-butanol, 283.15 K
Readout label: solubility (mole fraction)

Smiles code: CC(=O)N[C@@H](Cc1ccc(O)cc1)C(=O)O
Reported measurement: 0.0529

###

details: in acetonitrile, 298.15 K
Readout label: solubility (mole fraction)

Smiles code: CC(=O)N[C@@H](Cc1ccc(O)cc1)C(=O)O
Reported measurement: 0.00526

###

settings: in ethyl acetate, 288.15 K
Readout label: solubility (mole fraction)

Smiles code: CC(=O)N[C@@H](Cc1ccc(O)cc1)C(=O)O
Readout label: solubility (mole fraction)
Reported measurement: 0.00412

###

conditions: in acetone, 293.15 K
Readout label: solubility (mole fraction)

Smiles code: CC(=O)N[C@@H](Cc1ccc(O)cc1)C(=O)O
Readout label: solubility (mole fraction)
Reported measurement: 0.132

###

settings: in n-propyl acetate, 313.15 K

Smiles code: CC(=O)N[C@@H](Cc1ccc(O)cc1)C(=O)O
solubility (mole fraction): 0.0041

###

details: in dimethyl carbonate, 298.15 K

Smiles code: CC(=O)N[C@@H](Cc1ccc(O)cc1)C(=O)O
solubility (mole fraction): 0.0015

###

conditions: in acetone, 323.15 K

Smiles code: CC(=O)N[C@@H](Cc1ccc(O)cc1)C(=O)O
solubility (mole fraction): 0.197

###

conditions: in acetonitrile, 318.15 K

Smiles code: CC(=O)N[C@@H](Cc1ccc(O)cc1)C(=O)O
solubility (mole fraction): 0.0129

###

conditions: in sec-butanol, 298.15 K
Readout label: solubility (mole fraction)

Smiles code: CC(=O)N[C@@H](Cc1ccc(O)cc1)C(=O)O
Reported measurement: 0.103

###

conditions: in isopropanol, 313.15 K

Smiles code: CC(=O)N[C@@H](Cc1ccc(O)cc1)C(=O)O
solubility (mole fraction): 0.148

###

conditions: in n-butyl acetate, 298.15 K
Readout label: solubility (mole fraction)

Smiles code: CC(=O)N[C@@H](Cc1ccc(O)cc1)C(=O)O
Reported measurement: 0.00252

###

settings: in dimethyl carbonate, 303.15 K
Readout label: solubility (mole fraction)

Smiles code: CC(=O)N[C@@H](Cc1ccc(O)cc1)C(=O)O
Reported measurement: 0.00224

###

conditions: in n-butyl acetate, 308.15 K
Readout label: solubility (mole fraction)

Smiles code: CC(=O)N[C@@H](Cc1ccc(O)cc1)C(=O)O
Readout label: solubility (mole fraction)
Reported measurement: 0.00351

###

conditions: in sec-butanol, 288.15 K

Smiles code: CC(=O)N[C@@H](Cc1ccc(O)cc1)C(=O)O
solubility (mole fraction): 0.0885

###

conditions: in n-butyl acetate, 318.15 K
Readout label: solubility (mole fraction)

Smiles code: CC(=O)N[C@@H](Cc1ccc(O)cc1)C(=O)O
Reported measurement: 0.00413

###

conditions: in n-butanol, 318.15 K
Readout label: solubility (mole fraction)

Smiles code: CC(=O)N[C@@H](Cc1ccc(O)cc1)C(=O)O
Readout label: solubility (mole fraction)
Reported measurement: 0.0979

###

conditions: in ethyl acetate, 298.15 K

Smiles code: CC(=O)N[C@@H](Cc1ccc(O)cc1)C(=O)O
solubility (mole fraction): 0.00507

###

conditions: in acetonitrile, 308.15 K

Smiles code: CC(=O)N[C@@H](Cc1ccc(O)cc1)C(=O)O
solubility (mole fraction): 0.00795

###

settings: in isobutanol, 288.15 K

Smiles code: CC(=O)N[C@@H](Cc1ccc(O)cc1)C(=O)O
solubility (mole fraction): 0.0378

###

conditions: in isopropanol, 308.15 K

Smiles code: CC(=O)N[C@@H](Cc1ccc(O)cc1)C(=O)O
solubility (mole fraction): 0.134

###

conditions: in isopropanol, 303.15 K

Smiles code: CC(=O)N[C@@H](Cc1ccc(O)cc1)C(=O)O
solubility (mole fraction): 0.122

###

conditions: in acetonitrile, 293.15 K
Readout label: solubility (mole fraction)

Smiles code: CC(=O)N[C@@H](Cc1ccc(O)cc1)C(=O)O
Reported measurement: 0.00436

###

conditions: in methyl acetate, 288.15 K
Readout label: solubility (mole fraction)

Smiles code: CC(=O)N[C@@H](Cc1ccc(O)cc1)C(=O)O
Reported measurement: 0.00537

###

details: in n-butanol, 313.15 K
Readout label: solubility (mole fraction)

Smiles code: CC(=O)N[C@@H](Cc1ccc(O)cc1)C(=O)O
Reported measurement: 0.0911
